These data points were gathered from patent US9873702B2.

# target: dopamine transporter (DAT) (Rattus norvegicus, UniProt P23977)
# Sequence (P23977 whole entry): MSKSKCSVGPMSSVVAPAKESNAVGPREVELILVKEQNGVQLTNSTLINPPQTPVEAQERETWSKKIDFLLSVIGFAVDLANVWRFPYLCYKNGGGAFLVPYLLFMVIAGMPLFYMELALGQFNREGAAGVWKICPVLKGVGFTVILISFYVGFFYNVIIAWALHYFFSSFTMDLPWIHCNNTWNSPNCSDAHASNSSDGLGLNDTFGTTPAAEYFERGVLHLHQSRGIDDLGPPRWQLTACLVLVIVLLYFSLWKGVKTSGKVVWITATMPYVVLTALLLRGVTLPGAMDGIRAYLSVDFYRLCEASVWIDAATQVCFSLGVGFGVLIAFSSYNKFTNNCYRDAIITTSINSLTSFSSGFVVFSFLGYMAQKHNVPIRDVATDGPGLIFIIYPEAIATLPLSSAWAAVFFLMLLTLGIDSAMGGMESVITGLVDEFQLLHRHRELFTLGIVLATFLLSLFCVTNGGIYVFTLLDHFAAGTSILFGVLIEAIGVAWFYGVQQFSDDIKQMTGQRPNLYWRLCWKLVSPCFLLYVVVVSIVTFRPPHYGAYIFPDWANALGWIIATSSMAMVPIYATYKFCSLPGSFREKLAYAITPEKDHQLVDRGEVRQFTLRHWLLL
# measurement_description: Dopamine reuptake ([^3H]dopamine uptake) inhibition in rat brain synaptosomes
# details: DA Uptake EC50 (nM ± SD), rat caudate synaptosomes; 5 nM [^3H]dopamine; 15 min, 25° C.; three experiments pooled
The threshold is 400 nM. Values of IC50 beneath it are tagged Fulfilled; values meeting or exceeding it are tagged Not fulfilled.

Completed entries (count: 3):
>  <compound>
c1ccc(CNc2ncc(-c3nc(NCC(c4ccccc4)c4ccccc4)c4ccccc4n3)cn2)cc1

>  <classification>
Not fulfilled

$$$$
>  <compound>
c1ccc(C(CNc2nc(N3CCc4c([nH]c5ccccc45)C3)nc3ccccc23)c2ccccc2)cc1

>  <classification>
Fulfilled

$$$$
>  <compound>
Cn1ccc2cc(-c3nc(NCC(c4ccccc4)c4cccnc4)c4ccccc4n3)ccc21 (centres unmarked)

>  <classification>
Fulfilled

$$$$

Does "COc1cc2nc(-c3cncnc3)nc(NCC(c3ccccc3)c3ccccc3)c2cc1OC" have IC50 strictly under 400 nM?
Not fulfilled

Also need "c1ccc(C(CCNc2nc(-c3cccnc3)nc3ccccc23)c2ccccc2)cc1" , thanks.
Not fulfilled

Also need "Cn1ncc2cc(-c3nc(NCC(c4ccccc4)c4ccccc4)c4ccccc4n3)ccc21" , thanks.
Fulfilled

Also need "c1ccc(C(CNc2nc(-n3cccn3)nc3ccccc23)c2ccccc2)cc1" , thanks.
Not fulfilled

Also need c1ccc(C(CNc2nc(-c3ccc4[nH]ccc4c3)nc3ccccc23)c2cccc(-c3ccc4[nH]ccc4c3)n2)cc1 (centres unmarked) , thanks.
Not fulfilled

Also need "c1ccc(C(CNc2nc(-n3cnc4cncnc43)nc3ccccc23)c2ccccc2)cc1" , thanks.
Fulfilled

Also need "c1ccc(C(CNc2nc(-c3ccsc3)nc3ccccc23)c2ccccc2)cc1" , thanks.
Fulfilled

Also need "c1ccc(C(Nc2nc(-c3ccc4nccn4c3)nc3ccccc23)c2ccccc2)cc1" , thanks.
Fulfilled

Also need "CN(C)c1ccc(-c2nc(NC(c3ccccc3)c3ccccc3)c3ccccc3n2)cn1" , thanks.
Fulfilled

Also need "COc1ccc2nc(-c3ccc4[nH]ccc4c3)nc(NCC(c3ccccc3)c3ccccc3)c2c1" , thanks.
Fulfilled

Also need "COc1cc2nc(-c3cccs3)nc(NCC(c3ccccc3)c3ccccc3)c2cc1OC" , thanks.
Not fulfilled
